Target: SARS-CoV-2 Nsp3^179−1329 (Severe acute respiratory syndrome coronavirus 2, UniProt P0DTD1)
property label: IC50 (nM)
Note: unit nM is implicit; provide only the numeric part.

QUERY: Any idea what IC50 came out for "C[C@H](c1cccc2ccccc12)N1CCC(C(=O)NCc2cccc(-c3cn(Cc4nnc5c(F)cccn45)nn3)c2)CC1" on SARS-CoV-2 Nsp3^179−1329 (Severe acute respiratory syndrome coronavirus 2, UniProt P0DTD1)?
RESULT: 28
